Origin of values: patent US20240218071A1

- system-tested: T1, P17-His protein (human CD40 antigen) (human, UniProt P25942 21-193, limits assumed)
- T1 construct: also called human CD40 antigen (P17-His)
- T1 sequence (P25942 other isoform, or with tags, fused parts or gaps limits assumed): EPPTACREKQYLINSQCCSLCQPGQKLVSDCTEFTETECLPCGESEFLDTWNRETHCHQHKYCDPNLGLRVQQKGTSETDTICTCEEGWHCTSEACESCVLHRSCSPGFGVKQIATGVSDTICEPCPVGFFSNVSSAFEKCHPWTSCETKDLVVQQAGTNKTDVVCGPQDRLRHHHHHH
- method-notes: BLI (Fortebio Octet RED96), antibody on Protein A sensor, P17-His 5-40 nM
readout-label: kon (M⁻¹ s⁻¹)
Give a bare numeral; the unit M⁻¹ s⁻¹ is implied.

# kon (binder: C8-7 antibody (antibody, V domains shown) VH: EVQLLESGGGLVRPGGSLRLSCAASGFTFGSYEMNWVRQAPGKGLEWVSYISSSGETTDYADSVKGRFTVSRDNSKNLLYLQMNSLRAEDTAVYYCARDVFFFDSSGDNHAYGMDVWGQGTMVTVSS VL: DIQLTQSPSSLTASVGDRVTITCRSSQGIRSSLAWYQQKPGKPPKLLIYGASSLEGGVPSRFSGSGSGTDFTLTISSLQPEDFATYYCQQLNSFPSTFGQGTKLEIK ) is 895000
